Measurement description: NCI Yeast Anticancer Drug Screen. Data for the rad50 strain (AID 155);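 further: 0% = growth of vehicle-only cultures of the same strain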
Measurement setup: S. cerevisiae rad50 strain growth inhibition; at 50.0 µM; hits give high values
This is part of a sample that, as a whole, favours compounds with a hit. Of some 79,000 tested, about 15% had one in any assay.
Quick reference: growth inhibition of the listed items.

{"columns": ["Molecule", "growth inhibition (%)"],
 "data": [
  ["O=C(Cc1n[nH]c(=S)nc1CC(=O)c1cccnc1)c1cccnc1", 7.8],
  ["Cn1ncc2c(=O)[nH]c(=S)[nH]c21", -9.6],
  ["Cc1c(C)c2ccc(OC(C)C(=O)O)cc2oc1=O (centres undefined)", -10.9],
  ["O=C1C=C(Nc2nc(C(=O)O)cc(=O)[nH]2)c2ccccc2C1=O", 8.7],
  ["CN(C)CC1C2CCC(C2)C1O (centres undefined)", 2.2],
  ["O=C(O)C1CCC(=O)N1Cc1csc(-c2ccccc2)n1 (centres undefined)", -23.8],
  ["COc1cccc2c(=O)oc(-c3ccc(C(C)(C)C)cc3)nc12", 16.4],
  ["O=C(O)/C=C\\C(=O)Nc1ccc(C(=O)NCC(=O)O)cc1", -22.9],
  ["OCC1OC(n2nc(-c3ccccc3)nc2-c2cnccn2)C(O)C(O)C1O (centres undefined)", -37.4],
  ["CCOC(=O)C(C)(C)Oc1ccc2c(-c3ccc(Cl)cc3)cc(=O)oc2c1", 9.05],
  ["CCc1ccc2c(c1)CCC(=O)O2", 0.5],
  ["CCOC(=O)/C=C1\\CCCC12OCCO2", 29.2],
  ["CCCCCO[Si](OCCCCC)(OCCCCC)OCCCCC", 3.8],
  ["COC(=O)C(C)OC(=O)OCC(C)C (centres undefined)", -11.1],
  ["CN1N=C(N)c2cn(C3OC(COP(=O)(O)O)C(O)C3O)c3ncnc1c23 (centres undefined)", -16.2],
  ["CCCCCCCCCCCCCCCC(=O)O", -12.9],
  ["O=C(OCCN1CCCCC1)C(c1ccccc1)C1(O)CCSCC1 (centres undefined)", 9.6],
  ["Cc1cc(NCCN(C)C)nc(Nc2ccc(Cl)cc2)n1", 50.8],
  ["Cc1cc(C)nc(NC(=O)c2cc(C(=O)O)c(C(=O)Nc3cc(C)cc(C)n3)cc2C(=O)O)c1", -20.3],
  ["CCCN(CCC)S(=O)(=O)c1ccc(NC(=O)OC2CCCCC2)cc1", 37.1],
  ["N#Cc1ccccc1NC(=O)C(=O)C(C(=O)c1ccncc1)C1OC(=O)c2ccccc21 (centres undefined)", -2.55],
  ["Cc1cccc[n+]1CC(=O)c1ccc(Cl)cc1", -8.05],
  ["O=C(N/N=C\\c1ccc([N+](=O)[O-])cc1)Nc1ccc2ccccc2c1", 3.15],
  ["C/C(=N\\NC(=O)CC(=O)Nc1ccccc1Cl)c1cc2cc(N=Nc3ccccc3Cl)ccc2oc1=O", -17.1]
]}

====

Measurement description: NCI Yeast Anticancer Drug Screen. Data for the cln2 rad14 strain (AID 165);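 further: 0% = growth equal to vehicle treated cultures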
Measurement setup: S. cerevisiae cln2 rad14 strain, at 50.0 µM, hits give high values
The panel holds about 79,000 compounds, 15% with a hit somewhere; the sample as a whole holds those more often.
Quick rule for you: growth inhibition at -10% or higher means MET, lower means NOT MET.

{"columns": ["Compound", "Assigned category"],
 "data": [
  ["CCCn1c(C)nc2cc(C(F)(F)F)cc(N)c21", "NOT MET"],
  ["O=C(NC(=O)c1ccccc1O)c1ccccc1", "MET"],
  ["Cc1c(C(=O)CC(=O)C(=O)Nc2cc(Cl)ccc2Cl)[n+](=O)c2ccccc2n1[O-]", "MET"],
  ["O=C(NN1C(=O)C(Cl)C1c1cccc(O)c1)c1ccccc1O (stereo not given)", "MET"],
  ["CCN(CC)CCSC(=O)c1ccc([N+](=O)[O-])cc1", "MET"],
  ["COc1cc2c(cc1OC)C(c1ccccc1)ON(C)CC2 (stereo not given)", "NOT MET"],
  ["COC(=O)/C=C/c1ccccc1", "MET"],
  ["CCCCCCCCCCCCCCCCCCCCCCCCCCCC", "NOT MET"],
  ["CC1(C)C/C(=C\\c2cccc(Cl)c2)C(=O)c2ccccc21", "NOT MET"],
  ["CCC(c1ccc(C(C)=O)c(O)c1)C(CC)c1ccc(C(C)=O)c(O)c1 (stereo not given)", "MET"],
  ["C/C(=N\\NC(=O)C(N)=O)c1c(O)cc(C)oc1=O", "NOT MET"],
  ["CC(=O)Nc1cccc(F)c1", "NOT MET"],
  ["C1=CC(=P(c2ccccc2)(c2ccccc2)c2ccccc2)C=C1", "MET"],
  ["CC(=O)Nc1c(C)ccc(C)c1C(=O)O", "MET"],
  ["O=c1c2ccccc2c2ccccc2n1C(c1ccccc1)c1ccccc1", "NOT MET"],
  ["O=C1CSc2ccncc2N1", "MET"],
  ["CSc1nc2c(c(O)c(C)c(=O)n2C2OC(COC(C)=O)C(OC(C)=O)C(OC(C)=O)C2OC(C)=O)c(=O)n1C (stereo not given)", "MET"],
  ["O=C(CO)CC(=O)CCC(=O)Nc1cccc([N+](=O)[O-])c1", "MET"],
  ["O=C(O)CCC(=O)Nc1ccc(Cl)cc1", "NOT MET"],
  ["Oc1ccccc1C1SC(c2ccccc2O)SC(c2ccccc2O)S1 (stereo not given)", "MET"],
  ["O=C(NC1CCCCC1)C(c1ccccc1)c1ccccc1", "NOT MET"],
  ["Cc1c[n+]2c(C)cccc2n1C", "NOT MET"],
  ["CCN(CC)CCCN1CC(=O)N2CCCCN2C(=O)C1", "MET"],
  ["C/C(=N/Nc1ccc([N+](=O)[O-])cc1[N+](=O)[O-])C1=CCCCC1", "MET"],
  ["Cc1ccc(NC(=O)C2c3ccccc3-c3ccccc32)cc1", "MET"]
]}

FYI, the data here is from PubChem BioAssay (NCI).
